- protocol: basal RPMI8226 mitochondrial membrane potential changes, profiling panel, cell-based, JC-1 fluorescence, 24 h, 100 nL compound (AID 1169); also: test concentration not given here
- conditions used: RPMI8226 myeloma, JC-1 mitochondrial potential fluorescence, higher = more signal
Label scheme for z-score: lower than -0.7 is false (0), -0.7 and above is true (1).

Look over these answered cases.
{"molecule": "COC(=O)C1=CC(CCCO)=CC(c2ccc(CN3CCCC3)cc2)N(Cc2sc3ccccc3c2Cl)C=C1C(=O)OC (configuration not stated)", "qualitative label": "true (1)"}
{"molecule": "C=CCC(OC(C)=O)[C@@H]1[C@@H](N(Cc2ccc(-c3ccccc3)cc2)C(=O)c2ccc(-c3ccccc3)cc2)c2cc(OCCCO)ccc2N1C(=O)c1ccc2ccccc2n1 (some centres not stated)", "qualitative label": "false (0)"}
{"molecule": "O=C1OCCC/C=C\\[C@H]2OC34C=CCN(Cc5ccccc5)C(=O)[C@H]3N(CCCCCO)C(=O)[C@@H]4C12 (some centres not stated)", "qualitative label": "true (1)"}

Q. Exam item: decide whether the reported z-score for CC(C)CNC(=O)[C@@H]1c2ccccc2C(=O)N(C2Cc3ccccc3C2)[C@H]1c1ccc(CO)cc1 is at least -0.7.
A. false (0)

Q. Has O=C1O[C@H](c2ccccc2)[C@H](c2ccccc2)N2[C@H]1[C@@H](C(=O)N1CCN(c3ncccn3)CC1)[C@]1(C(=O)Nc3ccccc31)[C@H]2c1ccc(O)cc1 a recorded z-score greater than or equal to -0.7?
A. false (0)

Q. Is z-score for CC(=O)n1cc(C(O)C2C=CC3C(=O)N(c4ccccc4)C(=O)C3N2Nc2ccccc2F)c2ccccc21 (configuration not stated) at or above -0.7?
A. true (1)

Q. Tell me whether z-score is at least -0.7 here: CCCC[C@H]1OB(O)C[C@H]2C1=C(C)C[C@H]1C(=O)C=CC(=O)[C@H]12
A. false (0)

---

- target system: Follistatin (Homo sapiens) (UniProt P19883)
- Sequence (P19883 whole entry, looked up): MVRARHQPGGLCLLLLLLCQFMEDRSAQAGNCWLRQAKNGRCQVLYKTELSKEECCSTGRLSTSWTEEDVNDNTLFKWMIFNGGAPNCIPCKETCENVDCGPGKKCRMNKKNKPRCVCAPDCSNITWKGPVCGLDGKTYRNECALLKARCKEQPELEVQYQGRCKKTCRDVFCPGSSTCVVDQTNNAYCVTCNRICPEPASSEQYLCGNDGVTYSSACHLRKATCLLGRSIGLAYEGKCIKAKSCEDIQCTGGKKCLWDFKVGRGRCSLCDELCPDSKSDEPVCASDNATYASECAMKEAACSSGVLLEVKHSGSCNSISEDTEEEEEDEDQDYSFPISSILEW
- protocol: follistatin binders on small-molecule microarrays, primary screen, biochemical, small-molecule microarray, 635/667 nm fluorescence (AID 1132)
- conditions used: FST binding, 635 nm fluorescence, higher = more signal
Parameter: composite z-score. Scope: all listed entries.
Enter the number alone.

Please review the following examples before continuing.
{"compound": "CCOC(=O)C[C@H]1[C@H](OC(=O)c2ccc(C(=O)c3ccccc3)cc2)[C@@H](NC(=O)c2ccc3ccccc3c2)c2cc(OCCCO)ccc2N1C(=O)c1ccc2ccccc2n1", "recorded endpoint": "composite z-score", "value reported": 0.331}
{"compound": "C=C(CCCC)C(=O)CC[C@H](OC(=O)c1cccnc1)c1ccc(CO)o1", "recorded endpoint": "composite z-score", "value reported": 1.18}
{"compound": "C=CCC(OC(C)=O)[C@@H]1[C@@H](N(Cc2ccc(-c3ccccc3)cc2)C(=O)c2ccc(-c3ccccc3)cc2)c2cc(OCCCO)ccc2N1C(=O)c1ccc2ccccc2n1 (stereo partly drawn)", "recorded endpoint": "composite z-score", "value reported": 0.548}
{"compound": "CN(C)CCCCNC(=O)[C@H]1C[C@H]2C(=O)NCC(=O)N2[C@H]1c1cccc(OCCO)c1", "recorded endpoint": "composite z-score", "value reported": 0.991}
{"compound": "COC(=O)C1=CC(CCCO)=CC(c2ccc(CN3CCCC3)cc2)N(Cc2sc3ccccc3c2Cl)C=C1C(=O)OC (stereo not drawn)", "recorded endpoint": "composite z-score", "value reported": 0.59}

Q. Value lookup for composite z-score; key = CCCC[C@@H]1C[C@H]1[C@@H](NC(=O)c1ccc(C(F)(F)F)cc1)c1ccc(C(=O)OC)cc1
A. 1.25
